All values here come from PubChem BioAssay AID1626.

Form field: inhibition (one value per entry).
method: M. tuberculosis H37Rv growth inhibitors, H37Rv strain (AID 1626);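 further: bacteria incubated seven days before Alamar blue readout; 0% = bacteria only wells and 100% = bacteria with antibiotic wells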
condition_context: active compounds read high, concentration not given here
About 2,000 (0.91%) of roughly 220,000 compounds were called active. Inconclusive results (about 2%) are left out. Only a sample is shown. Results with a measured potency or affinity are listed apart.
value_type: inhibition

CCC(C)(C)C(=O)Nc1ccc(OC)cc1[N+](=O)[O-]
-0.65% (inactive)
Cc1ccc(NC(=O)c2cncc(Br)c2)c([N+](=O)[O-])c1
5.6% (inactive)
CCCn1c(SCC(=O)Nc2ccccc2C(=O)OC)nc2c1c(=O)n(C)c(=O)n2C
0.72% (inactive)
CCN(C1CCCCC1)S(=O)(=O)c1ccc(C(=O)O)cc1
-11.6% (inactive)
O=C1C(Cl)=C(Nc2ccccc2)C(=O)c2ccccc21
-1.42% (inactive)
CCCCCCCCCCCCCCCC[n+]1cccc(C(=O)N(CC)CC)c1
5.29% (inactive)
CCCCC(=O)Nc1nc(C)c(-c2csc(Nc3ccccc3OC)n2)s1
6.85% (inactive)
NC(=O)C[C@H]1NC(=O)[C@H](CCC(=O)O)NC(=O)c2cc([N+](=O)[O-])cc(I)c2NCCC[C@@H](C(N)=O)NC1=O
3.24% (inactive)
O=C1C(Nc2ccccc2)=C(NS(=O)(=O)c2ccccc2)C(=O)c2ccccc21
8.84% (inactive)
O=C1C=C(Nc2ccc(O)cc2)C(=O)c2ccccc21
5.07% (inactive)
